Assayed target: DNA dC->dU-editing enzyme APOBEC-3G (Homo sapiens)
Sequence (Q9HC16 whole entry): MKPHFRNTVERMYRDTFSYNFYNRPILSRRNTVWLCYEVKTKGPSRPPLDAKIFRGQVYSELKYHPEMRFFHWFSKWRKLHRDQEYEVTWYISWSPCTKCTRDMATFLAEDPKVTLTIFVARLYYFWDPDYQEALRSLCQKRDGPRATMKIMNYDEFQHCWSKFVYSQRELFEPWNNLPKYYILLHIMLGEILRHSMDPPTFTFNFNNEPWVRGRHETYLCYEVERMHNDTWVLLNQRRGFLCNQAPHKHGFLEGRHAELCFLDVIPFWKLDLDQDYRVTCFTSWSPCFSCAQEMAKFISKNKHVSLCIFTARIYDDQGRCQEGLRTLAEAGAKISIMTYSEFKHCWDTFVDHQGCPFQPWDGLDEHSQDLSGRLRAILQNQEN
Protocol: Dose Response confirmation of small molecule APOBEC3G DNA Deaminase Inhibitors via a fluorescence-based single-stranded DNA deaminase assay. [Related pubchem assays (depositor defined):AID493012, AID493028]
Type: functional
Active and inactive are the calls of the source. No stated cut-off is given here; in the data, actives have a measured IC50 and inactives only a lower limit.
Here the recorded IC50 is given for each entry.

Oc1ccc(/C=N/n2c(S)nnc2COc2ccccc2)cc1O: 2.1 µM (active)
Cc1cc(-c2nnc(S)n2/N=C/c2ccc(C)o2)n[nH]1: 5.66 µM (active)
CCn1c(S)nnc1CSCc1ccccc1: 8.31 µM (active)
COc1cc(N=c2ssnc2Cl)c(OC)cc1Cl: 8.83 µM (active)

### Prompt Suppose we examine the compound COC(=O)[C@H](C)NC(=O)c1cc2c3ccccc3nc-2c[nH]1 ; what IC50 value has been reported?
### Response 25.6 µM (active)

### Prompt // query: COC(=O)CCC(=O)Nc1sc(Cc2ccccc2)c(C)c1C(N)=O
### Response 31.1 µM (active)

From: ChEMBL document CHEMBL1201862
